Target: caspase-9 (Homo sapiens (Human))
Sequence (P55211 1-315): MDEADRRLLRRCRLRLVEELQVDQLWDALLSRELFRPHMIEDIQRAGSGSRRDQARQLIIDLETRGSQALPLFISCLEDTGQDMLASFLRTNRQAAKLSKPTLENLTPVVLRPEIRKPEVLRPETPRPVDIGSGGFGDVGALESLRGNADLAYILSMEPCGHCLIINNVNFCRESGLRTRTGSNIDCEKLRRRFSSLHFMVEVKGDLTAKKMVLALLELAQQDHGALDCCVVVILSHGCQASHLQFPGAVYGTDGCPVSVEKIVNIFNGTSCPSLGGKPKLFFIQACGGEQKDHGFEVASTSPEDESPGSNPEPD
Sequence (P55211 331-416): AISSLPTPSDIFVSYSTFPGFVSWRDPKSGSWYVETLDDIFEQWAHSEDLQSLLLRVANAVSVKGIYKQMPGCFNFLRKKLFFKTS
Assay: Caspase-9 Inhibitor Drug Screening Kit, fluorometric enzymatic assay
Details: read-out: Caspase enzymatic activity, IC50 (uM) Caspase 9; 30-minute incubation at 37° C., AFC liberation
assay readout: IC50

>>> result("CC(C)[C@H](NC(=O)[C@H](Cc1c[nH]c2ccccc12)NC(=O)[C@H](CC(=O)O)NC(=O)OCc1ccccc1)C(=O)N[C@H](/C=C/S(C)(=O)=O)CC(=O)O [Compound 88, Z-Asp-Trp-Val-Aspmethyl vinyl sulfone]")
"> 3.33 µM"
>>> result("COC(=O)C[C@@H](/C=C/S(C)(=O)=O)NC(=O)[C@@H](NC(=O)[C@@H](NC(=O)[C@H](CC(=O)OC)NC(=O)OCc1ccccc1)C1Cc2ccccc2C1)C(C)C [Compound 51]")
"> 3 µM"
>>> result("CC(C)[C@H](NC(=O)[C@@H](Cc1ccc2ccccc2n1)NC(=O)[C@H](CC(=O)O)NC(=O)OCc1ccccc1)C(=O)N[C@H](/C=C/S(=O)(=O)c1ccccc1)CC(=O)O (stereo in doubt) [Compound 70]")
"> 10 µM"
>>> result("CC(C)[C@H](NC(=O)[C@H](Cc1ccc(O)cc1)NC(=O)[C@H](CC(=O)O)NC(=O)OCc1ccccc1)C(=O)N[C@H](/C=C/S(C)(=O)=O)CC(=O)O [Compound 76, Z-Asp-Tyr-Val-Aspmethyl vinyl sulfone]")
"> 3.33 µM"
>>> result("CC(C)[C@H](NC(=O)[C@@H](NC(=O)[C@H](CC(=O)O)NC(=O)OCc1ccccc1)C1Cc2ccccc2C1)C(=O)N[C@H](/C=C/S(C)(=O)=O)CC(=O)O [Compound 57]")
"> 3.33 µM"

----------
Biological target: caspase-1 (Homo sapiens (Human), UniProt P29466)
Sequence (P29466 120-297): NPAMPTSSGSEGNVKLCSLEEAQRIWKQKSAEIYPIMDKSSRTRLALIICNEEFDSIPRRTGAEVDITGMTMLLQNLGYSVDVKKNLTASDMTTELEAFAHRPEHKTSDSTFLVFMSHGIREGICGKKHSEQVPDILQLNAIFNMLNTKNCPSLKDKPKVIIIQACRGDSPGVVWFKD
Sequence (P29466 317-404): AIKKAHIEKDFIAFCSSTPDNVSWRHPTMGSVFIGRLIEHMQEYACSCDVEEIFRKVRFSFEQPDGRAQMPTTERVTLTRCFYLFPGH
Experiment: Caspase-1 Inhibitor Drug Screening Kit, fluorometric enzymatic assay
Conditions: read-out: Caspase enzymatic activity, IC50 (uM) Caspase 1; 30-minute incubation at 37° C., AFC liberation
assay readout: IC50

>>> result("CC(C)[C@H](NC(=O)[C@H](Cc1ccc2ccccc2n1)NC(=O)[C@H](CC(=O)O)NC(=O)OCc1ccccc1)C(=O)N[C@H](/C=C/S(C)(=O)=O)CC(=O)O")
"> 10 µM"
>>> result("CC(C)[C@H](NC(=O)[C@@H](Cc1ccc2ccccc2n1)NC(=O)[C@H](CC(=O)O)NC(=O)OCc1ccccc1)C(=O)N[C@H](/C=C/S(C)(=O)=O)CC(=O)O (stereo in doubt)")
"> 10 µM"
>>> result("COC(=O)C[C@@H](/C=C/S(C)(=O)=O)NC(=O)[C@@H](NC(=O)[C@@H](NC(=O)[C@H](CC(=O)OC)NC(=O)OCc1ccccc1)C1Cc2ccccc2C1)C(C)C")
"> 3 µM"
>>> result("CC(C)[C@H](NC(=O)[C@H](Cc1ccc2ccccc2n1)NC(=O)[C@H](CC(=O)O)NC(=O)OCc1ccccc1)C(=O)N[C@H](/C=C/S(=O)(=O)c1ccccc1)CC(=O)O")
"> 3.33 µM"
>>> result("CC(C)[C@H](NC(=O)[C@H](Cc1ccc(O)cc1)NC(=O)[C@H](CC(=O)O)NC(=O)OCc1ccccc1)C(=O)N[C@H](/C=C/S(C)(=O)=O)CC(=O)O")
"> 3.33 µM"

----------
System: Hela cells
Assay: Inhibition of proteolytic cleavage of PARP in staurosporine-treated live Hela cells
Type: cell-based
Conditions: Homo sapiens, 50 uM, relative to DEVDFMK, read-out: % of inhibition with compound relative to DEVDFMK
Experimental: To test the efficacy of caspase-3 inhibitors at the cellular level, the ability of selected compounds to inhibit the proteolytic cleavage of PARP (poly ADP-ribose polymerase) was evaluated in live Hela cells. Briefly, in this assay Hela cells are seeded in 96 well plates and incubated for 4 hours with staurosporine, a well characterized inducer of apoptosis, alone or together with different concentrations of compound (50, 25, 10 and 3 uM). […]
Each entry gets n if its inhibition at 50 µM stays under 40%, and y if its inhibition at 50 µM is 40% or above.

>>> category("CC(C)[C@H](NC(=O)[C@H](Cc1ccc2ccccc2n1)NC(=O)[C@H](CC(=O)O)NC(=O)OCc1ccccc1)C(=O)N[C@H](/C=C(\\Cl)S(C)(=O)=O)CC(=O)O")
"y"
>>> category("CC(C)[C@H](NC(=O)OCc1ccccc1)C(=O)N[C@H](/C=C/S(C)(=O)=O)CC(=O)O")
"n"
>>> category("CC(C)[C@H](NC(=O)[C@H](Cc1ccc2ccccc2n1)NC(=O)[C@H](CC(=O)O)NC(=O)OCc1ccccc1)C(=O)N[C@H](/C=C/S(=O)(=O)c1ccccc1)CC(=O)O")
"n"
>>> category("COC(=O)C[C@@H](/C=C/S(C)(=O)=O)NC(=O)[C@@H](NC(=O)[C@@H](NC(=O)[C@H](CC(=O)OC)NC(=O)OCc1ccccc1)C1Cc2ccccc2C1)C(C)C")
"y"
>>> category("CC(C)[C@H](NC(=O)[C@@H](NC(=O)[C@H](CC(=O)O)NC(=O)OCc1ccccc1)c1ccccc1)C(=O)N[C@H](/C=C/S(C)(=O)=O)CC(=O)O")
"y"
>>> category("CC(C)[C@H](NC(=O)[C@H](Cc1c[nH]c2ccccc12)NC(=O)[C@H](CC(=O)O)NC(=O)OCc1ccccc1)C(=O)N[C@H](/C=C/S(C)(=O)=O)CC(=O)O")
"y"

----------
Molecular target: caspase-9 (Homo sapiens (Human))
Test: Caspase-9 Inhibitor Drug Screening Kit, fluorometric enzymatic assay
Conditions: read-out: Caspase enzymatic activity, IC50 (uM) Caspase 9; 30-minute incubation at 37° C., AFC liberation
assay readout: IC50

>>> result("CC(C)[C@H](NC(=O)OCc1ccccc1)C(=O)N[C@H](/C=C/S(C)(=O)=O)CC(=O)O")
"> 3.33 µM"
>>> result("CC(C)[C@H](NC(=O)[C@H](Cc1ccc2ccccc2n1)NC(=O)[C@H](CC(=O)O)NC(=O)OCc1ccccc1)C(=O)N[C@H](/C=C/S(C)(=O)=O)CC(=O)O")
"> 3.33 µM"
>>> result("CC(C)[C@H](NC(=O)[C@H](Cc1ccc2ccccc2n1)NC(=O)[C@H](CC(=O)O)NC(=O)OCc1ccccc1)C(=O)N[C@H](/C=C/S(=O)(=O)c1ccccc1)CC(=O)O")
"> 3.33 µM"
>>> result("CC(C)[C@H](NC(=O)[C@H](Cc1ccc(O)cc1)NC(=O)OCc1ccccc1)C(=O)N[C@@H](C)C(=O)N[C@H](/C=C/S(=O)(=O)c1ccccc1)CC(=O)O")
"> 10 µM"
>>> result("CC(C)[C@H](NC(=O)[C@@H](Cc1ccc2ccccc2n1)NC(=O)[C@H](CC(=O)O)NC(=O)OCc1ccccc1)C(=O)N[C@H](/C=C/S(C)(=O)=O)CC(=O)O (stereo in doubt)")
"> 10 µM"

----------
Biological target: caspase-7 (Homo sapiens (Human))
Sequence (P55210 24-198): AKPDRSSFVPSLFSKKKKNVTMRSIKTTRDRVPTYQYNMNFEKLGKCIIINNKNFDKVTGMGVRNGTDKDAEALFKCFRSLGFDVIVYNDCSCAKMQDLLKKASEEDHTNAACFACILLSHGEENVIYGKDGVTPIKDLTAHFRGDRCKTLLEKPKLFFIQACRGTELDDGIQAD
Sequence (P55210 207-303): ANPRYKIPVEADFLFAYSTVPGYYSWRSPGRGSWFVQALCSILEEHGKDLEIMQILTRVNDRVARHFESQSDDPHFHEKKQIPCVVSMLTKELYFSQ
Experiment: Caspase-7 Inhibitor Drug Screening Kit, fluorometric enzymatic assay
Conditions: read-out: Caspase enzymatic activity, IC50 (uM) Caspase 7; 30-minute incubation at 37° C., AFC liberation
Parameter: IC50. Scope: all listed entries.
assay readout: IC50

>>> result("CC(C)[C@H](NC(=O)[C@@H](Cc1ccc2ccccc2n1)NC(=O)[C@H](CC(=O)O)NC(=O)OCc1ccccc1)C(=O)N[C@H](/C=C/S(C)(=O)=O)CC(=O)O (stereo in doubt) [Compound 71]")
"8.9 µM"
>>> result("COC(=O)C[C@@H](/C=C/S(C)(=O)=O)NC(=O)[C@@H](NC(=O)[C@@H](NC(=O)[C@H](CC(=O)OC)NC(=O)OCc1ccccc1)C1Cc2ccccc2C1)C(C)C [Compound 51]")
"> 3 µM"
>>> result("CC(C)[C@H](NC(=O)[C@H](CCC(=O)O)NC(=O)[C@H](Cc1ccc(O)cc1)NC(=O)OCc1ccccc1)C(=O)N[C@H](/C=C/S(C)(=O)=O)CC(=O)O [Compound 82, Z-Tyr-Glu-Val-Aspmethyl vinyl sulfone]")
"> 5 µM"
>>> result("CC(C)[C@H](NC(=O)[C@H](Cc1ccc(O)cc1)NC(=O)OCc1ccccc1)C(=O)N[C@@H](C)C(=O)N[C@H](/C=C/S(=O)(=O)c1ccccc1)CC(=O)O [Compound 96, Z-Tyr-Val-Ala-Asp phenyl vinyl sulfone]")
"> 10 µM"
>>> result("CC(C)[C@H](NC(=O)[C@@H](Cc1ccc2ccccc2n1)NC(=O)[C@H](CC(=O)O)NC(=O)OCc1ccccc1)C(=O)N[C@H](/C=C/S(=O)(=O)c1ccccc1)CC(=O)O (stereo in doubt) [Compound 70]")
"> 10 µM"
>>> result("CC(C)[C@H](NC(=O)OCc1ccccc1)C(=O)N[C@H](/C=C/S(C)(=O)=O)CC(=O)O [Compound 61, Z-Val-Aspmethyl vinyl sulfone]")
"> 3.33 µM"

----------
Parameter: inhibition at 50 µM. Scope: all listed entries.
System: Hela cells
Assay: Inhibition of proteolytic cleavage of PARP in staurosporine-treated live Hela cells
Type: cell-based
Conditions: Homo sapiens, read-out: % inhibition of PARP cleavage at 50 uM compound, staurosporine 4 hours, 50 uM compound
assay readout: inhibition at 50 µM

>>> result("CC(C)[C@H](NC(=O)OCc1ccccc1)C(=O)N[C@H](/C=C/S(C)(=O)=O)CC(=O)O [Compound 61, Z-Val-Aspmethyl vinyl sulfone]")
"5%"
>>> result("CC(C)[C@H](NC(=O)[C@@H](NC(=O)[C@H](CC(=O)O)NC(=O)OCc1ccccc1)c1ccccc1)C(=O)N[C@H](/C=C/S(C)(=O)=O)CC(=O)O [Compound 53, Z-Asp-Phg-Val-Aspmethyl vinyl sulfone]")
"55%"
>>> result("CC(C)[C@H](NC(=O)[C@@H](NC(=O)[C@H](CC(=O)O)NC(=O)OCc1ccccc1)C1Cc2ccccc2C1)C(=O)N[C@H](/C=C/S(C)(=O)=O)CC(=O)O [Compound 57]")
"65%"
>>> result("COC(=O)CC[C@H](NC(=O)[C@H](CC(=O)OC)NC(=O)OCc1ccccc1)C(=O)N[C@H](C(=O)N[C@@H](CC(=O)OC)C(=O)CF)C(C)C [DEVD-fmk, reference compound]")
"85%"
>>> result("CC(C)[C@H](NC(=O)[C@H](Cc1c[nH]c2ccccc12)NC(=O)[C@H](CC(=O)O)NC(=O)OCc1ccccc1)C(=O)N[C@H](/C=C/S(C)(=O)=O)CC(=O)O [Compound 88, Z-Asp-Trp-Val-Aspmethyl vinyl sulfone]")
"45%"
